Form field: pIC50 (one value per entry).
biological target: 72 kDa type IV collagenase (Homo sapiens, UniProt P08253)
Sequence (P08253 whole entry): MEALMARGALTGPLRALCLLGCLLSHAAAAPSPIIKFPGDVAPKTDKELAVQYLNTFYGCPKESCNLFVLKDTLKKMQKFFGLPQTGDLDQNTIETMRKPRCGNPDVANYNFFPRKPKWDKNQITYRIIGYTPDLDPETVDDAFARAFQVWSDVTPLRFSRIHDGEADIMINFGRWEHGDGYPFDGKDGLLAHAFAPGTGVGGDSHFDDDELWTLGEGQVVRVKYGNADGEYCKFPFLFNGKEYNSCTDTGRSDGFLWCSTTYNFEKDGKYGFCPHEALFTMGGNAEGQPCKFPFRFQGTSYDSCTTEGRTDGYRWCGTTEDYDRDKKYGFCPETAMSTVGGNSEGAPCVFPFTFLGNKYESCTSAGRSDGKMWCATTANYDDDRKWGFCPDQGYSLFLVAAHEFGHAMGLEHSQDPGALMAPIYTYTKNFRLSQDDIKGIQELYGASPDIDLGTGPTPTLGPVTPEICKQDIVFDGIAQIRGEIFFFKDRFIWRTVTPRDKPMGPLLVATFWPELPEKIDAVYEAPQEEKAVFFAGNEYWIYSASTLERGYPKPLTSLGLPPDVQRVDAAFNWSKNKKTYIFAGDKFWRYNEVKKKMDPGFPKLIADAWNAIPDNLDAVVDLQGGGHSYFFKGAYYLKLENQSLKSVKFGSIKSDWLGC
FYI, pIC50 means -log10 of a concentration in mol per litre.

Reference set (3 entries):
>  <COMPOUND>
COc1ccc(S(=O)(=O)N[C@H]2C[C@H](C(=O)NO)N(S(=O)(=O)c3ccc(OC)cc3)C2)cc1

>  <STUDY SYSTEM>
72 kDa type IV collagenase (Homo sapiens, UniProt P08253)

>  <pIC50>
8.52

$$$$
>  <COMPOUND>
COCCOc1ccc(S(=O)(=O)N2C[C@@H](N3C(=O)CN(C)C3=O)C[C@@H]2C(=O)NO)cc1

>  <STUDY SYSTEM>
72 kDa type IV collagenase (Homo sapiens, UniProt P08253)

>  <pIC50>
9.00

$$$$
>  <COMPOUND>
COc1ccc(S(=O)(=O)N2C[C@@H](N3CCOCC3)C[C@@H]2C(=O)NO)cc1

>  <STUDY SYSTEM>
72 kDa type IV collagenase (Homo sapiens, UniProt P08253)

>  <pIC50>
8.22

$$$$

Lookup: Give a short answer stating reported pIC50 for "CCCN(C(=O)[C@H](C)O)[C@H]1C[C@H](C(=O)NO)N(S(=O)(=O)c2ccc(OC)cc2)C1" .
Found: 9.15

Lookup: Give me measured pIC50, please, for this compound: "C=CCN1CC(=O)N([C@H]2C[C@H](C(=O)NO)N(S(=O)(=O)c3ccc(OCCC)cc3)C2)C1=O"
Found: 9.10

Lookup: Give the reported value of pIC50 for this record: "C=CCN1CC(=O)N([C@H]2C[C@H](C(=O)NO)N(S(=O)(=O)c3ccc(OCCOC)cc3)C2)C1=O"
Found: 8.70

Lookup: Could you please provide reported pIC50 for "CCCCOc1ccc(S(=O)(=O)N2C[C@@H](N3C(=O)CN(CCC)C3=O)C[C@@H]2C(=O)NO)cc1" ? Thanks!
Found: 9.40

Lookup: Look up and report measured pIC50 for this entry: "CCCCOc1ccc(S(=O)(=O)N2C[C@@H](N3CCOCC3)C[C@@H]2C(=O)NO)cc1"
Found: 8.40

Lookup: Using known records, supply pIC50 for "CCCCOc1ccc(S(=O)(=O)N2C[C@@H](N3C(=O)NC(C)(C)C3=O)C[C@@H]2C(=O)NO)cc1"
Found: 8.70

Lookup: Identify pIC50 associated with the compound "CCCN1CC(=O)N([C@H]2C[C@H](C(=O)NO)N(S(=O)(=O)c3ccc(OCCOC)cc3)C2)C1=O"
Found: 8.70

Lookup: Indicate its recorded pIC50; the compound in question is "CCCCOc1ccc(S(=O)(=O)N2C[C@@H](N3CCS(=O)(=O)CC3)C[C@@H]2C(=O)NO)cc1"
Found: 8.15

Lookup: Give the reported value of pIC50 for this record: "COc1ccc(S(=O)(=O)N2C[C@@H](NC(=O)[C@H](Cc3ccccc3)OCc3ccccc3)C[C@@H]2C(=O)NO)cc1"
Found: 9.70

Lookup: Supply pIC50 value. Item: "CCCCOc1ccc(S(=O)(=O)N2C[C@@H](NS(C)(=O)=O)C[C@@H]2C(=O)NO)cc1"
Found: 9.10

Lookup: Find the measured pIC50 of "CCCN(C(=O)[C@@H](O)CCc1ccccc1)[C@H]1C[C@H](C(=O)NO)N(S(=O)(=O)c2ccc(OC)cc2)C1" and report it.
Found: 9.22

Lookup: Look up pIC50 of "COc1ccc(S(=O)(=O)N2C[C@@H](NC(=O)[C@H](C)OCc3ccccc3)C[C@@H]2C(=O)NO)cc1" and report it.
Found: 9.52

Lookup: Quote pIC50 reported for "CCCN([C@H]1C[C@H](C(=O)NO)N(S(=O)(=O)c2ccc(OC)cc2)C1)S(C)(=O)=O" please.
Found: 9.10

Lookup: Give recorded pIC50. "COc1ccc(S(=O)(=O)N2C[C@@H](N(Cc3cccnc3)S(C)(=O)=O)C[C@@H]2C(=O)NO)cc1"
Found: 8.70

Lookup: Provide one value: measured pIC50 of CCCCOc1ccc(S(=O)(=O)N2C[C@@H](N3C(=O)NC(SC)C3=O)C[C@@H]2C(=O)NO)cc1 (some centres undefined)
Found: 7.31

----------
target: Collagenase 3 (Homo sapiens, UniProt P45452); test: In vitro inhibitory activity against human recombinant matrix metalloprotease-13 (collagenase-3)
RESULT TYPE: IC50 (nM)
# unit: nM | format: bare number

// worked examples, IC50 included
>  <SMILES RECORD>
CCCCOc1ccc(S(=O)(=O)N2C[C@@H](NC(=O)[C@H](C)O)C[C@@H]2C(=O)NO)cc1

>  <IC50, nM>
0.9

$$$$
>  <SMILES RECORD>
COc1ccc(S(=O)(=O)N2C[C@@H](N3CCCCC3)C[C@@H]2C(=O)NO)cc1

>  <IC50, nM>
1

$$$$
>  <SMILES RECORD>
CCCCOc1ccc(S(=O)(=O)N2C[C@@H](NC(=O)COC)C[C@@H]2C(=O)NO)cc1

>  <IC50, nM>
0.7

$$$$
>  <SMILES RECORD>
CS(=O)(=O)N[C@H]1C[C@H](C(=O)NO)N(S(=O)(=O)c2ccc(Oc3ccncc3)cc2)C1

>  <IC50, nM>
0.8

$$$$
>  <SMILES RECORD>
C=CCN1CC(=O)N([C@H]2C[C@H](C(=O)NO)N(S(=O)(=O)c3ccc(OCCC)cc3)C2)C1=O

>  <IC50, nM>
0.4

$$$$
>  <SMILES RECORD>
CCCOc1ccc(S(=O)(=O)N2C[C@@H](N3CCCCC3)C[C@@H]2C(=O)NO)cc1

>  <IC50, nM>
0.4

$$$$

Continue with the next compound.
Lookup: Hello, please tell me recorded IC50 for this one: "CCCCCc1ccc(S(=O)(=O)N2C[C@@H](N3CCCCC3)C[C@@H]2C(=O)NO)cc1"
Found: 0.9

----------
molecular target: Collagenase 3 (Homo sapiens, UniProt P45452); experiment: In vitro inhibitory activity against human recombinant matrix metalloprotease-13 (collagenase-3)
RESULT TYPE: IC50

>  <SMILES RECORD>
O=C(NO)[C@H]1C[C@H](N2CCCC2)CN1S(=O)(=O)c1ccc(Oc2ccccc2)cc1

>  <RESULT TYPE>
IC50

>  <EXPERIMENTAL VALUE>
< 0.4 nM

$$$$
>  <SMILES RECORD>
CCCOc1ccc(S(=O)(=O)N2C[C@@H](N3C(=O)CN(C)C3=O)C[C@@H]2C(=O)NO)cc1

>  <RESULT TYPE>
IC50

>  <EXPERIMENTAL VALUE>
0.3 nM

$$$$
>  <SMILES RECORD>
O=C(NO)[C@H]1C[C@H](N2CCCC2)CN1S(=O)(=O)c1ccc(Oc2ccc(F)cc2)cc1

>  <RESULT TYPE>
IC50

>  <EXPERIMENTAL VALUE>
< 0.4 nM

$$$$
>  <SMILES RECORD>
CCCOc1ccc(S(=O)(=O)N2C[C@@H](NC(=O)[C@H](C)O)C[C@@H]2C(=O)NO)cc1

>  <RESULT TYPE>
IC50

>  <EXPERIMENTAL VALUE>
1 nM

$$$$
>  <SMILES RECORD>
CCOc1ccc(S(=O)(=O)N2C[C@@H](N3C(=O)CN(C)C3=O)C[C@@H]2C(=O)NO)cc1

>  <RESULT TYPE>
IC50

>  <EXPERIMENTAL VALUE>
4 nM

$$$$

Lookup: Identify measured IC50 associated with "CCCCCc1ccc(S(=O)(=O)N2C[C@@H](N3CCOCC3)C[C@@H]2C(=O)NO)cc1"
Found: 0.7 nM

Lookup: Name the recorded IC50 of the item "CCCOc1ccc(S(=O)(=O)N2C[C@@H](N3CCOCC3)C[C@@H]2C(=O)NO)cc1" in your answer.
Found: 1 nM

Lookup: Give reported IC50 value for "O=C(NO)[C@H]1C[C@H](N2CCCCC2)CN1S(=O)(=O)c1ccc(Oc2ccccc2)cc1"
Found: < 0.4 nM

Lookup: Let me know recorded IC50 for "COc1ccc(S(=O)(=O)N2C[C@@H](N)C[C@@H]2C(=O)NO)cc1" , thanks.
Found: 5 nM

Lookup: For "C=CCN1CC(=O)N([C@H]2C[C@H](C(=O)NO)N(S(=O)(=O)c3ccc(OCCCC)cc3)C2)C1=O" , write its IC50.
Found: 0.4 nM

----------
Target: Matrilysin (Homo sapiens)
Sequence (P09237 whole entry): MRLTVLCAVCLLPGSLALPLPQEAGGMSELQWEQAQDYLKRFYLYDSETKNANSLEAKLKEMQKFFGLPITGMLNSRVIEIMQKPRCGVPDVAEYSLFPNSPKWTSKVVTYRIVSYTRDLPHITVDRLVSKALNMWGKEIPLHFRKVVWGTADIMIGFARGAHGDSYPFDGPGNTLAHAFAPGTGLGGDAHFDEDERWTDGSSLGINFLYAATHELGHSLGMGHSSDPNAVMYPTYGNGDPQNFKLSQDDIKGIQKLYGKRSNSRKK
Values of IC50 strictly less than 1000 nM map to true (1), and values of at least 1000 nM map to false (0).

As a guide, the following entries are already answered.
>  <COMPOUND>
COc1ccc(S(=O)(=O)N2C[C@@H](N3C(=O)CN(C)C3=O)C[C@@H]2C(=O)NO)cc1

>  <CLASS LABEL>
false (0)

$$$$
>  <COMPOUND>
CCCCOc1ccc(S(=O)(=O)N2C[C@@H](N3C(=O)NC(SC)C3=O)C[C@@H]2C(=O)NO)cc1 (stereo not given in full)

>  <CLASS LABEL>
true (1)

$$$$
>  <COMPOUND>
CCCN[C@H]1C[C@H](C(=O)NO)N(S(=O)(=O)c2ccc(OC)cc2)C1

>  <CLASS LABEL>
false (0)

$$$$

From here, focus on the item given below.
Lookup: Hi there! Is IC50 for "CCCCOc1ccc(S(=O)(=O)N2C[C@@H](NC(=O)[C@@H](O)C(C)C)C[C@@H]2C(=O)NO)cc1" below 1000 nM, do you know?
Found: false (0)
